system: kochia (Kochia scoparia); assay: Test A preemergence, directed soil spray; assay type: in vivo; settings: 31 g ai/ha, approx. 10 days
endpointLabel: Plant response rating (0 to 100 scale, 0 no effect, 100 complete control), Kochia

Request: Output Plant response rating (0 to 100 scale, 0 no effect, 100 complete control), Kochia of O=c1cccc(Oc2ncc(Cl)cn2)n1-c1ncc(F)cn1 [Compound 4]
Result: 0

Request: Identify the reported Plant response rating (0 to 100 scale, 0 no effect, 100 complete control), Kochia for the following entry. O=c1cccc(Oc2ncc(Cl)cn2)n1-c1ccc(C(F)(F)F)cc1 [Compound 10]
Result: 30

Request: Tell us which Plant response rating (0 to 100 scale, 0 no effect, 100 complete control), Kochia value is on record for O=c1cccc(Oc2ncc(Cl)cn2)n1-c1ncc(C(F)(F)F)cn1 [Compound 5]
Result: 0

Request: Look up Plant response rating (0 to 100 scale, 0 no effect, 100 complete control), Kochia of O=c1cccc(Oc2ncc(Cl)cn2)n1-c1ccc(Cl)cn1 [Compound 8] and report it.
Result: 30

Request: Please look at this compound and report its Plant response rating (0 to 100 scale, 0 no effect, 100 complete control), Kochia: O=c1cccc(Oc2ncc(Cl)cn2)n1-c1ccc(C(F)(F)F)cn1 [Compound 7]
Result: 30

Request: Respond only with Plant response rating (0 to 100 scale, 0 no effect, 100 complete control), Kochia recorded for O=c1cccc(Oc2ncc(Cl)cn2)n1-c1ccc(F)cn1 [Compound 9]
Result: 20

Request: Answer with the recorded Plant response rating (0 to 100 scale, 0 no effect, 100 complete control), Kochia for the compound listed here: O=c1cccc(Oc2ncc(Cl)cn2)n1-c1ncc(Cl)cn1 [Compound 6]
Result: 60

---

test system: large (Lg) crabgrass (Digitaria sanguinalis); assay: Test C postemergence; assay type: in vivo; settings: 125 g ai/ha, scale 0 to 100, 0 is no effect, 100 is complete control
endpointLabel: Plant response rating, Crabgrass, Large

Request: Specify measured Plant response rating, Crabgrass, Large for O=c1cccc(Oc2ncc(Cl)cn2)n1-c1ccc(C(F)(F)F)cc1 .
Result: 80

Request: Retrieve Plant response rating, Crabgrass, Large measured for O=c1cccc(Oc2ncc(Cl)cn2)n1-c1ccc(Cl)cc1 and print it.
Result: 20

Request: Assign Plant response rating, Crabgrass, Large to the following record: O=c1cccc(Oc2ncc(Cl)cn2)n1-c1ncc(Cl)cn1
Result: 20

Request: Annotate the molecule O=c1cccc(Oc2ncc(Cl)cn2)n1-c1ccc(C(F)(F)F)cn1 with its measured Plant response rating, Crabgrass, Large.
Result: 15

---

tested on: ragweed (common ragweed, Ambrosia elatior); assay: Test C postemergence; assay type: in vivo; settings: 62 g ai/ha, scale 0 to 100, 0 is no effect, 100 is complete control
endpointLabel: Plant response rating, Ragweed
Write the number on its own, no unit after it.

Request: Determine from records and report Plant response rating, Ragweed for O=c1cccc(Oc2ncc(Cl)cn2)n1-c1ccc(Cl)cc1
Result: 35

Request: Give reported Plant response rating, Ragweed value for O=c1cccc(Oc2ncc(Cl)cn2)n1-c1ccc(C(F)(F)F)cn1
Result: 35

Request: Write down Plant response rating, Ragweed measured for item O=c1cccc(Oc2ncc(Cl)cn2)n1-c1ccc(C(F)(F)F)cc1
Result: 60

Request: Report measured Plant response rating, Ragweed; entry is O=c1cccc(Oc2ncc(Cl)cn2)n1-c1ncc(Cl)cn1
Result: 40

---

Hi there, I'd appreciate the recorded Plant response rating, Rice for every entry that follows.
test system: rice (Oryza sativa); test: Test B flooded paddy test; format: in vivo; parameters: key: 0 = no effect, 100 = complete control; conditions: Flood, 250 g ai/ha applied to paddy water at 2-leaf stage; visually evaluated after 13 to 15 days; scale 0 (no effect) to 100 (complete control)
Write no unit; give the number alone.

Request: Provide measured Plant response rating, Rice value, entry: O=c1cccc(Oc2ncc(Cl)cn2)n1-c1ccc(C(F)(F)F)cc1 [Compound 10]
Result: 20

Request: // Input: O=c1cccc(Oc2ncc(Cl)cn2)n1-c1ncc(F)cn1 [Compound 4] . Output its Plant response rating, Rice only.
Result: 0

Request: Tell us which Plant response rating, Rice value is on record for O=c1cccc(Oc2ncc(Cl)cn2)n1-c1ccc(C(F)(F)F)cn1 [Compound 7]
Result: 0

Request: State, in one line, measured Plant response rating, Rice of O=c1cccc(Oc2ncc(Cl)cn2)n1-c1ncc(C(F)(F)F)cn1 [Compound 5]
Result: 0

Request: Specify Plant response rating, Rice for O=c1cccc(Oc2ncc(Cl)cn2)n1-c1ccc(Cl)cn1 [Compound 8] and stop.
Result: 0

Request: Please supply the value of reported Plant response rating, Rice for the item O=c1cccc(Oc2ncc(Cl)cn2)n1-c1ncc(Cl)cn1 [Compound 6]
Result: 0

Request: Please give the documented Plant response rating, Rice of O=c1cccc(Oc2ncc(Cl)cn2)n1-c1cccc(C(F)(F)F)c1 [Compound 2]
Result: 0

Request: Complete the entry with Plant response rating, Rice for O=c1cccc(Oc2ncc(Cl)cn2)n1-c1ccc(Cl)cc1 [Compound 1]
Result: 10

Request: State its Plant response rating, Rice for this compound: O=c1cccc(Oc2ncc(Cl)cn2)n1-c1cccc(OC(F)(F)F)c1 [Compound 3]
Result: 0

Request: For the compound O=c1cccc(Oc2ncc(Cl)cn2)n1-c1ccc(F)cn1 [Compound 9] , give its measured Plant response rating, Rice value.
Result: 0

---

Would you kindly list Plant response rating, Velvetleaf for each of these compounds?
test system: velvetleaf (Abutilon theophrasti); experiment: Test C preemergence; assay type: in vivo; conditions: 31 g ai/ha, scale 0 to 100, 0 is no effect, 100 is complete control
The response must contain the number and no unit.

Request: Given the compound O=c1cccc(Oc2ncc(Cl)cn2)n1-c1ncc(Cl)cn1 , write its reported Plant response rating, Velvetleaf.
Result: 25

Request: State its Plant response rating, Velvetleaf for this compound: O=c1cccc(Oc2ncc(Cl)cn2)n1-c1ccc(Cl)cc1
Result: 0

Request: Write down Plant response rating, Velvetleaf measured for item O=c1cccc(Oc2ncc(Cl)cn2)n1-c1ccc(C(F)(F)F)cn1
Result: 10

Request: Report Plant response rating, Velvetleaf, nothing else, for this compound: O=c1cccc(Oc2ncc(Cl)cn2)n1-c1ccc(C(F)(F)F)cc1
Result: 20

---

test system: corn (Zea mays); assay: Test C postemergence; format: in vivo; conditions: 62 g ai/ha, scale 0 to 100, 0 is no effect, 100 is complete control
I'd be grateful if you could share measured Plant response rating, Corn for these entries.
Provide a numeric answer; units are not to be included.

Request: Return the recorded Plant response rating, Corn value; entry: O=c1cccc(Oc2ncc(Cl)cn2)n1-c1ccc(Cl)cc1 [Compound 1]
Result: 10

Request: Give me measured Plant response rating, Corn, please, for this molecule: O=c1cccc(Oc2ncc(Cl)cn2)n1-c1ncc(Cl)cn1 [Compound 6]
Result: 10

Request: Tell us which Plant response rating, Corn value is on record for O=c1cccc(Oc2ncc(Cl)cn2)n1-c1ccc(C(F)(F)F)cn1 [Compound 7]
Result: 20

Request: // Input: O=c1cccc(Oc2ncc(Cl)cn2)n1-c1ccc(C(F)(F)F)cc1 [Compound 10] . Output its Plant response rating, Corn only.
Result: 25

---

system: giant foxtail (Setaria faberii); experiment: Test A preemergence, directed soil spray; assay type: in vivo; conditions: 31 g ai/ha, approx. 10 days
endpointLabel: Plant response rating (0 to 100 scale, 0 no effect, 100 complete control), Foxtail, Giant
Lab note: jot the number down without any unit.

Request: Respond only with Plant response rating (0 to 100 scale, 0 no effect, 100 complete control), Foxtail, Giant recorded for O=c1cccc(Oc2ncc(Cl)cn2)n1-c1ccc(F)cn1
Result: 10

Request: Give me measured Plant response rating (0 to 100 scale, 0 no effect, 100 complete control), Foxtail, Giant, please, for this compound: O=c1cccc(Oc2ncc(Cl)cn2)n1-c1ccc(C(F)(F)F)cn1
Result: 60

Request: State its Plant response rating (0 to 100 scale, 0 no effect, 100 complete control), Foxtail, Giant for this compound: O=c1cccc(Oc2ncc(Cl)cn2)n1-c1ncc(Cl)cn1
Result: 60

Request: Indicate the recorded Plant response rating (0 to 100 scale, 0 no effect, 100 complete control), Foxtail, Giant value for this compound: O=c1cccc(Oc2ncc(Cl)cn2)n1-c1ccc(C(F)(F)F)cc1
Result: 70

Request: Give Plant response rating (0 to 100 scale, 0 no effect, 100 complete control), Foxtail, Giant for O=c1cccc(Oc2ncc(Cl)cn2)n1-c1ccc(Cl)cn1
Result: 40

Request: Please supply the value of reported Plant response rating (0 to 100 scale, 0 no effect, 100 complete control), Foxtail, Giant for the item O=c1cccc(Oc2ncc(Cl)cn2)n1-c1ncc(C(F)(F)F)cn1
Result: 70

Request: Entry O=c1cccc(Oc2ncc(Cl)cn2)n1-c1ncc(F)cn1 needs its Plant response rating (0 to 100 scale, 0 no effect, 100 complete control), Foxtail, Giant filled in; supply it.
Result: 0

// data source = patent US9963442B2
